# Tested on: Brain
# assay.protocol: Drug level in C57BL/6N mouse brain assessed as compound level per gram of brain tissue at 5 mg/kg, ip measured 3 hrs post dose by HPLC
# Type: ADME, organism-based
# Parameters: dose 5 mg/kg, route intraperitoneal
# condition: in vivo, 3 h
test.readout: brain concentration (ng/g)
Answer with a number only, understood to be in ng/g.

INPUT: What brain concentration value was documented for this compound, Cc1ccc(Nc2nnc(-c3ccc([N+](=O)[O-])cc3)o2)cc1Cl ?
OUTPUT: 113

###

Reported concentration at 3 h is given for each of the following compounds.
# assay.protocol: Drug level in C57BL/6N mouse plasma at 15 mg/kg, ip measured 3 hrs post dose by HPLC
# Type: ADME, organism-based
# Parameters: dose 15 mg/kg, route intraperitoneal
Answer with a number only, understood to be in ng/mL.

INPUT: What concentration at 3 h value was documented for this compound, Cc1ccc(Nc2nnc(-c3ccc([N+](=O)[O-])cc3)o2)cc1Cl ?
OUTPUT: 61

INPUT: What concentration at 3 h value was documented for this compound, O=C1NC(=O)/C(=C/c2cccc3c2OCO3)N1 ?
OUTPUT: 81

Hey, just so you know, these numbers are from ChEMBL document CHEMBL1629446.
